- experimental system: form B of monoamine oxydase (Rattus norvegicus)
- Construct: monoamine oxydase in rat brain tissue; from tissue; host or cells: homogenized entire brain of male Sprague-Dawley rat
- Sequence (P19643 whole entry): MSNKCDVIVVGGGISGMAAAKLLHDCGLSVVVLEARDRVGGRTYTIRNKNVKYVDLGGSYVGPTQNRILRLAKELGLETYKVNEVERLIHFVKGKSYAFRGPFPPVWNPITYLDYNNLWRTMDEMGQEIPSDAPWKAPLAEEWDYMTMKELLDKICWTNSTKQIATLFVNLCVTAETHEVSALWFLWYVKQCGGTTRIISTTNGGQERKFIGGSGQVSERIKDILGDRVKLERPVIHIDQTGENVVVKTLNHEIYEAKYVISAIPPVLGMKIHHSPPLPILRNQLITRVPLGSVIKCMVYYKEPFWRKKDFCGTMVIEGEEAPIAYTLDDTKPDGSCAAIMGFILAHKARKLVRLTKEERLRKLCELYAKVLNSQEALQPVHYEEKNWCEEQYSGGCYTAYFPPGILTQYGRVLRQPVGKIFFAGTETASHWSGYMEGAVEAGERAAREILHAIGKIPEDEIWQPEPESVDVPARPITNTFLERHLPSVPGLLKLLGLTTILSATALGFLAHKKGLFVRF
- assay procedure: in vitro inhibition of monoamine oxydase form B (homogenized rat brain, (14C) phenylethylamine substrate)
- Assay type: biochemical, rat (male Sprague-Dawley, entire brain)
- experimental context: no pre-incubation; rat brain homogenate, pH 7.4; (14C) phenylethylamine; read-out: Inhibition constant KIB, no pre-incubation
assay metric: Ki (nM)
Output spec: scalar in nM, unitless text.

Look over these answered cases.
                                   compound  unit_annotation  assay_result
0  COCC(COc1ccc(OCc2cccc(Cl)c2)cc1)OC (racemic) [compound 200210]               nM           403
1  COC(CO)COc1ccc(OCc2cccc(Cl)c2)cc1 (racemic) [compound 200213]               nM           543

Now take the following compound into account.
// Input: OCCCCc1ccc(OCc2cccc(Cl)c2)cc1 [compound 200123] . Output its Ki only.
232

* * *

List of pKi values.
- experimental system: form A of monoamine oxydase (Rattus norvegicus)
- Construct: monoamine oxydase in rat brain tissue; from tissue; host or cells: homogenized entire brain of male Sprague-Dawley rat
- Sequence (P21396 whole entry): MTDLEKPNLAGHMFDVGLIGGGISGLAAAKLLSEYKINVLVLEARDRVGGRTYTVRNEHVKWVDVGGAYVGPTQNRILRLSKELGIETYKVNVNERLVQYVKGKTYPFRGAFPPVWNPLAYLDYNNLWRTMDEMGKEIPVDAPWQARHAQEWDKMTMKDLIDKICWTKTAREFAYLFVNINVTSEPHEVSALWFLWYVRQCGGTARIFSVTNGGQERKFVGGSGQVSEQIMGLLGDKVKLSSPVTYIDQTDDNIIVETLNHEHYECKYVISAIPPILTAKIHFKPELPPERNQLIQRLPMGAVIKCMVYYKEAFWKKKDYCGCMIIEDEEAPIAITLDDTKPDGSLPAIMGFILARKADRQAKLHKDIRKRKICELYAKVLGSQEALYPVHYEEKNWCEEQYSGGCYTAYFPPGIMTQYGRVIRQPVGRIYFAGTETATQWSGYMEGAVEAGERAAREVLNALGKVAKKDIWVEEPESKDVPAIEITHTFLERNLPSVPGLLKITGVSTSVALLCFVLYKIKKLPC
- assay procedure: in vitro inhibition of monoamine oxydase form A (homogenized rat brain, (14C) serotonine substrate)
- Type: biochemical, rat (male Sprague-Dawley, entire brain)
- experimental context: after 20 min pre-incubation, rat brain homogenate, pH 7.4, read-out: Inhibition constant KIA, after 20 min pre-incubation
The quantity pKi is defined as the negative base-10 logarithm of the molar concentration.

In [3]: df
Out[3]:
                                   molecule  assay_metric  assay_result
0  COC[C@H](O)COc1ccc(OCc2cccc(Cl)c2)cc1 [compound 280040]           pKi          5.78

Now take the following molecule into account.
// Input: COCCCC(O)c1ccc(OCc2cccc(Cl)c2)cc1 (racemic) [compound 280190] . Output its pKi only.
5.27

* * *

- experimental system: form A of monoamine oxydase (Rattus norvegicus)
- Construct: monoamine oxydase in rat brain tissue; from tissue; host or cells: homogenized entire brain of male Sprague-Dawley rat
- assay procedure: in vitro inhibition of monoamine oxydase form A (homogenized rat brain, (14C) serotonine substrate)
- Assay type: biochemical, rat (male Sprague-Dawley, entire brain)
- experimental context: no pre-incubation, rat brain homogenate, pH 7.4, read-out: Inhibition constant KIA, no pre-incubation
List of Ki values.

Look over these answered cases.
>>> df
                                   compound                       experimental_system  assay_result
0  OCCCCc1ccc(OCc2cccc(Cl)c2)cc1 [compound 200123]  form A of monoamine oxydase (Rattus norvegicus)     > 1.72 µM
1  COC(CO)COc1ccc(OCc2cccc(Cl)c2)cc1 (racemic) [compound 200213]  form A of monoamine oxydase (Rattus norvegicus)     > 5.17 µM

Now take the following compound into account.
Please respond with reported Ki (system form A of monoamine oxydase (Rattus norvegicus)) for COCC(COc1ccc(OCc2cccc(Cl)c2)cc1)OC (racemic) [compound 200210] .
> 1.72 µM

Reference source for all entries: patent US4971995A
